Protein target, amino acids: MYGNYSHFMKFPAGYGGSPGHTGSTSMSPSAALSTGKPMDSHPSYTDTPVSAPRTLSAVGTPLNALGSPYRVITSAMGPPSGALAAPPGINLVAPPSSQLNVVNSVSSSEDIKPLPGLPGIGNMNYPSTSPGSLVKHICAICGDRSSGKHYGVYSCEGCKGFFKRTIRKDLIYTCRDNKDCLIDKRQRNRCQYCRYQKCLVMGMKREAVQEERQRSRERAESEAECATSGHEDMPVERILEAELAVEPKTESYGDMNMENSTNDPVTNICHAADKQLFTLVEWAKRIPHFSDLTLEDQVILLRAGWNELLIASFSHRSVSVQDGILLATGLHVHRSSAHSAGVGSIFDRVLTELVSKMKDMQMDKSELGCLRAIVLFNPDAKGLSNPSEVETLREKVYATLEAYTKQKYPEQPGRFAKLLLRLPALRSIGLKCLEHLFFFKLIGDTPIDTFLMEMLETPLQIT
Each item that follows carries a reported pEC50.
Please treat pEC50 as minus the base-10 logarithm of the molar concentration.

The following compounds have reported results that may help.
• CC1CCN(c2cc(Cl)nc(OCCC(=O)O)n2)c2ccccc21 (stereo not drawn) = 7.30
• CN(c1cccc(Cl)c1)c1cc(Cl)nc(OCCC(=O)O)n1 = 5.62

Now consider the entry below.
# input Field request: pEC50 | item: Cc1cccc2c1CCCN2c1cc(Cl)nc(OCCC(=O)O)n1
# output 6.32
